# assay.procedure: anti-His antibody binders, primary screen, artefact control for SMM control protein annotation, biochemical, small-molecule microarray, 635 nm fluorescence (AID 1128);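 also: score merges feature fluorescence with signal-to-noise for each printed compound spot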
# condition.description: anti-His Alexa647 antibody binding, higher = more signal
assay.endpoint: composite z-score
Please give the numeric answer without any surrounding text.

Consider the worked cases shown below.
* CCCC=C(CCC)[C@@H](NC(=O)c1ccc(C(F)(F)F)cc1)c1ccccc1 | 0.81
* C=CC[C@]1(C(=O)O)N=C(c2ccc(OCCCO)cc2)O[C@H]1c1ccccc1 | 0.254
* CC(C)NC(=O)[C@@]1(Cc2ccccc2I)c2ccccc2C(=O)N(C2CCCCC2)[C@H]1c1ccc(CO)cc1 | 2.52
* CO[C@H]1COC(=O)CC=C[C@H](C)[C@@H](OC)COC(=O)[C@H](Cc2ccccc2)NC(=O)CC=C[C@@H]1C | -1.1
* C=CCC(OC(C)=O)[C@@H]1[C@@H](N(Cc2cc3ccccc3o2)C(=O)Cc2ccc(F)cc2)c2cc(OCCCO)ccc2N1C(=O)c1ccc(-c2ccccc2)cc1 (stereo partly drawn) | -1.6
* COC(=O)Cn1c(C(=O)N2CCCC2)cc2c1C[C@H]1CN(C(=O)c3ccccc3)[C@@](Cc3ccc(OC)cc3)(C(=O)OC)[C@@H]21 | 1.9
* CCN1C(C)=C(C(=O)OC)[C@@H](c2ccccc2)N2C(=O)[C@@]3(C(=O)OC)O[C@@]12[C@@H]1C(=O)N(C)C(=O)[C@@H]13 | 1.65

Now look at this entry.
Quick one: composite z-score of C=CCC1=C[C@H]2[C@H]([C@@H]3C=C[C@]2(CC=C)C(=O)[C@]32CO2)[C@@]2(CO2)C1=O ?
-0.131

----------
# Test system: Inhibin beta A chain (activin A)
# assay.procedure: INHBA (activin A) binders on microarrays, primary screen, biochemical, small-molecule microarray, 635 nm fluorescence scan (AID 1107);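 also: mouse activin A protein probed at 4.33 µg/mL on printed slides; score merges bound-protein fluorescence near 667 nm with spot signal-to-noise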
# condition.description: small-molecule microarray binding, higher = more signal
assay.endpoint: composite z-score
Please give the numeric answer without any surrounding text.

• C[C@@H]1CC[C@H]2C(=O)N3[C@@H](CC[C@@H](C)[C@@H]3c3cccc(N4CCOCC4)c3)C(=O)N2[C@H]1c1cccc(N2CCOCC2)c1 = 0.866

Quick one: composite z-score of COc1cc2c(cc1OC)CN(C(=O)[C@@H]1[C@H]3C(=O)O[C@H](c4ccccc4)[C@H](c4ccccc4)N3[C@H](c3ccccc3OCCO)[C@@]13C(=O)Nc1ccccc13)CC2 ?
0.358

Quick one: composite z-score of CC(=O)NCCCC[C@@H]1NC(=O)[C@@H]2C[C@H](C(=O)NCCCCCCN(C)C)[C@H](c3ccc(O)cc3)N2C1=O ?
0.11

Quick one: composite z-score of C=C(CCCC)C(=O)CC[C@@H](OC(C)=O)c1ccccc1OCCO ?
0.857

Quick one: composite z-score of COc1ccc([Si](C)(C)[C@H]2[C@H](CCO)O[C@@]3(C(=O)N(Cc4ccccc4)c4ccc(N5C(=O)c6cccc7cccc5c67)cc43)[C@@H]2C)cc1 ?
0.629

----------
# assay.target: Dickkopf-related protein 1 (Homo sapiens) (UniProt O94907)
# Sequence (O94907 whole entry, looked up): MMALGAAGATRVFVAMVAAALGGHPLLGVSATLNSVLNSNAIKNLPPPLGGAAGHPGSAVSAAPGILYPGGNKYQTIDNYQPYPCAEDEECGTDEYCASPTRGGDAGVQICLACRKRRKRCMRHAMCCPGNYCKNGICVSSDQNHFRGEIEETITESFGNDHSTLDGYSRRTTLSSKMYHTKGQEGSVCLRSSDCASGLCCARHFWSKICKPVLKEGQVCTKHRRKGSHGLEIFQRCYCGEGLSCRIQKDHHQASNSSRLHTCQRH
# assay.procedure: DKK1 binders on small-molecule microarrays, primary screen, biochemical, small-molecule microarray, 635 nm fluorescence scan (AID 1106);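 also: score merges emission near 667 nm with signal to noise over three replicate slides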
# condition.description: DKK1 binding, higher = more signal
yes means recorded composite z-score is 0.4 or above; no means it is below 0.4.

- CO[C@@H]1COC(=O)CC=C[C@H](C)COC(=O)[C@H](Cc2ccccc2)NC(=O)CC=C[C@H]1C: yes
- CCOC(=O)C[C@H]1[C@H](OC(=O)c2ccccc2-c2ccccc2)[C@@H](NC(=O)C2CCCCC2)c2cc(OCCCO)ccc2N1C(=O)c1ccccc1: yes
- O=C1O[C@H](c2ccccc2)[C@H](c2ccccc2)N2[C@H]1[C@@H](C(=O)Nc1nc3ccccc3s1)[C@]1(C(=O)Nc3ccc(C#CC4(O)CCCCCC4)cc31)[C@H]2c1ccc(O)cc1: yes
- O=C1O[C@@H](c2ccccc2)[C@@H](c2ccccc2)N2[C@@H](c3ccc(OCCO)cc3)[C@]3(C(=O)Nc4ccc(C#CCCO)cc43)[C@@H](C(=O)N3CCN(c4ncccn4)CC3)[C@H]12: no
- C=C[C@H](OC)[C@@H](OC(=O)Nc1ccc(SC)cc1)c1ccc(OC)c(O)c1: no
- C[C@@H]1CC[C@H]2C(=O)N3[C@@H](CC[C@@H](C)[C@@H]3c3cccc(N4CCOCC4)c3)C(=O)N2[C@H]1c1cccc(N2CCOCC2)c1: yes
- O=C1NC(=O)C2C1C=CC(C(O)C=Cc1ccc([N+](=O)[O-])cc1)N2Nc1ccccn1 (centres undefined): yes
- O=C1O[C@@H](c2ccccc2)[C@@H](c2ccccc2)N2[C@@H](c3ccc(O)cc3)[C@]3(C(=O)Nc4ccccc43)[C@@H](C(=O)N3CCN(c4ncccn4)CC3)[C@H]12: no

Now consider the entry below.
Would you say [N-]=[N+]=NCc1ccccc1[C@H]1OC(c2ccc(OCCCO)cc2)=N[C@@]1(Cc1ccccc1N=[N+]=[N-])C(=O)NCc1ccccc1 shows composite z-score at minimum 0.4?
no

----------
# assay.procedure: E. coli acrAB mutant growth effects, primary screen, E. coli filamentation inducers, strain DRC39, OD650, 24 h (AID 1178);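 also: growth measured as culture turbidity by optical density at 650 nm; test concentration not given here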
# condition.description: higher = more signal, called active from +8 up or from −8 down
assay.endpoint: z-score
Please give the numeric answer without any surrounding text.

• COc1cc2c(cc1OC)CN(C(=O)[C@H]1[C@@H]3C(=O)O[C@@H](c4ccccc4)[C@@H](c4ccccc4)N3[C@@H](c3ccccc3OCCO)[C@]13C(=O)Nc1ccc(C#CC4(O)CCCCCC4)cc13)CC2 = 0.667
• CCCN1C(=O)[C@@]2(CCS(=O)(=O)c3ccccc3)N=C(c3ccc(OCCCO)cc3)O[C@H]2c2ccccc21 = 0.861
• COc1cc([C@@H]2N[C@H](C(=O)O)Cc3c2[nH]c2ccccc32)cc(OC)c1OC = -0.105
• O=C1OCCC/C=C\[C@H]2OC34C=CCN(CCN5CCOCC5)C(=O)[C@H]3N(CCCCCO)C(=O)[C@@H]4C12 (some centres not stated) = 0.157
• COCCOC(=O)N1C(=O)[C@@]2(c3cc(C#CC4=CCCCC4)ccc31)[C@H](C(=O)NC[C@H](O)c1ccccc1)[C@H]1C(=O)O[C@H](c3ccccc3)[C@H](c3ccccc3)N1[C@@H]2c1ccccc1OCCO = -0.504
• O=C1c2ccccc2[C@](Cc2ccccc2I)(C(=O)NCC(F)(F)F)[C@H](c2ccc(CO)cc2)N1Cc1ccccc1C(F)(F)F = 0.775
• COc1ccc([Si](C)(C)[C@H]2[C@H](CCO)O[C@@]3(C(=O)N(Cc4ccc(N5CCCCC5=O)cc4)c4ccccc43)[C@@H]2C)cc1 = 2.18
• CCCC/C=C/[C@H]([C@@H](O)Cc1ccccc1)N(CC#Cc1ccccc1)Cc1ccccc1Br = 2.75
• O=C1O[C@@H](c2ccccc2)[C@@H](c2ccccc2)N2[C@@H](c3ccc(OCCO)cc3)[C@]3(C(=O)Nc4ccc(C#CCCO)cc43)[C@@H](C(=O)N3CCN(c4ncccn4)CC3)[C@H]12 = 1.05
• C=CCNC(=O)[C@H]1[C@@H]2C(=O)O[C@@H](c3ccccc3)[C@@H](c3ccccc3)N2[C@@H](c2ccccc2OCCO)[C@]12C(=O)N(C(=O)OCCOC)c1ccc(C#CCC(C(=O)OC)C(=O)OC)cc12 = 1.11

Quick one: z-score of COCCCNC(=O)[C@@]1(Sc2ccc(C)cc2)CC(=O)N(Cc2cc(C(F)(F)F)cc(C(F)(F)F)c2)[C@@H]1c1ccc(CO)cc1I ?
0.818

Quick one: z-score of O=C1C2C=CC(C(O)C#Cc3ccccc3)N(Nc3ccccc3)C2C(=O)N1c1ccccc1 (configuration not stated) ?
-0.169

----------
# assay.procedure: small-molecule microarray binders of probe aDKK1, primary screen, biochemical, biotinylated probe, 635/667 nm fluorescence (AID 1099);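 also: score merges 667nm spot fluorescence with signal to noise across triplicate slides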
# condition.description: higher = more signal
assay.endpoint: composite z-score
Please give the numeric answer without any surrounding text.

Consider the worked cases shown below.
• CN1C(=O)C2C=CC(C(O)c3ccc(N(C)C)cc3)N(Nc3ccc([N+](=O)[O-])cc3[N+](=O)[O-])C2C1=O (centres undefined) = 1.17
• COC(=O)c1c(CC[C@@H](CO)NC(=O)N[C@H](Cn2cc(-c3cncn3C)nn2)C(C)C)oc(C(C)=O)c1C(=O)OC = -0.203
• CO[C@@H]1COC(=O)CC=C[C@H](C)COC(=O)[C@H](Cc2ccccc2)NC(=O)CC=C[C@H]1C = -1.19
• O=C(NCC(O)CO)[C@]1(Cc2ccccc2)N=C(c2ccc(OCCCO)cc2)O[C@@H]1c1ccccc1 (some centres undefined) = 1
• COCCOC(=O)N1C(=O)[C@@]2(c3cc(C#CCCO)ccc31)[C@H](C(=O)N1CCCCCCC1)[C@H]1C(=O)O[C@H](c3ccccc3)[C@H](c3ccccc3)N1[C@@H]2c1ccc(O)cc1 = 1.53
• CC(=O)NCCCC[C@@H]1NC(=O)[C@H]2C[C@@H](C(=O)NCCCCCCN(C)C)[C@@H](c3ccc(O)cc3)N2C1=O = -0.124

Quick one: composite z-score of CCOC(=O)C1=C[C@@H](c2ccccc2)N(S(=O)(=O)c2ccc(C)cc2)[C@H]1c1ccc(F)cc1 ?
0.362

Quick one: composite z-score of CCCCCCc1nc(C2CC2)c(C)c2c1[Si](C(C)C)(C(C)C)OC2 ?
-0.124

Quick one: composite z-score of NC(=O)NCC#Cc1ccc2c(c1)[C@]1(C(=O)N2)[C@H](c2ccccc2OCCO)N2[C@H](c3ccccc3)[C@H](c3ccccc3)OC(=O)[C@H]2[C@@H]1C(=O)N1CCN(c2ncccn2)CC1 ?
0.0815

The origin of these recorded values is PubChem BioAssay.
